# Tested Target: UniProt:P31639
# Sequence (P31639 whole entry, species assumed): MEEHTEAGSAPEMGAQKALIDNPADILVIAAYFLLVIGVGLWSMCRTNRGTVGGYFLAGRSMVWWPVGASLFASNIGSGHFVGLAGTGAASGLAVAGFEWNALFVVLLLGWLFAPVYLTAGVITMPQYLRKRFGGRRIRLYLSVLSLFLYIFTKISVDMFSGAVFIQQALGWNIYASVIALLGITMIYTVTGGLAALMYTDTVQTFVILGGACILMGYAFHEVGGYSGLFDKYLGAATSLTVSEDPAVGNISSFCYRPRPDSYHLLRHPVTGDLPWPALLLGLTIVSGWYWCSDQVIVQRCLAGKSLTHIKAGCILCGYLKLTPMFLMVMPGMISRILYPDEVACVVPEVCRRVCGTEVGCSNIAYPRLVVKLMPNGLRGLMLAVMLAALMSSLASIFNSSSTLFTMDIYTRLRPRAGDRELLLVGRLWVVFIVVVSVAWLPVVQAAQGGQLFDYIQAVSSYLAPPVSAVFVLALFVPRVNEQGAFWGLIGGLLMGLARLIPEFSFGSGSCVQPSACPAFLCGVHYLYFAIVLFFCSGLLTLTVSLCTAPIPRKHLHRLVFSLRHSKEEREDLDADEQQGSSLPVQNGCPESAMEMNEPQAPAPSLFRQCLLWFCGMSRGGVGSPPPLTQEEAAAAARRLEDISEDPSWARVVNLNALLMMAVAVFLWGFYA
# Assay Remarks: [14C]-AMG absorption in stable SGLT2 expressing Flp-in CHO cells (SGLT-2 activity screening assay)
# Assay Setup: 14C-AMG uptake, 37° C. 1 h, 1% DMSO
Consider the cut-off 10 nM. If the recorded IC50 is strictly smaller, the label is Yes; if not, the label is No.

**Q:** Please check: IC50 for OC[C@H]1O[C@@H](c2ccc(Cl)c(Cc3ccc(OCc4cc5ccc(F)cc5o4)cc3)c2)[C@H](O)[C@@H](O)[C@@H]1O , strictly under 10 nM or not?
**A:** No

**Q:** Please check: IC50 for CC1(COc2ccc(Cc3cc([C@@H]4O[C@H](CO)[C@@H](O)[C@H](O)[C@H]4O)ccc3Cl)cc2)Cc2ccccc2O1 (single isomer, unassigned) [Compound I-107] , strictly under 10 nM or not?
**A:** No

**Q:** Please check: IC50 for OC[C@H]1O[C@@H](c2ccc(Cl)c(Cc3ccc(OC[C@H]4OCc5ccccc54)cc3)c2)[C@H](O)[C@@H](O)[C@@H]1O , strictly under 10 nM or not?
**A:** Yes

**Q:** Please check: IC50 for OC[C@H]1O[C@@H](c2cccc(Cc3ccc(OCc4cc5ccccc5o4)cc3)c2)[C@H](O)[C@@H](O)[C@@H]1O , strictly under 10 nM or not?
**A:** No

**Q:** Please check: IC50 for Cc1ccc([C@@H]2O[C@H](CO)[C@@H](O)[C@H](O)[C@H]2O)cc1Cc1ccc(OCC2(C)Cc3ccccc3O2)cc1 (single isomer, unassigned) [Compound I-110] , strictly under 10 nM or not?
**A:** No
